Sourced from ChEMBL document CHEMBL2021887

- System: Human immunodeficiency virus 1
- Method summary: Antiviral activity against X4 tropic HIV1 pNL4.3-Ren infected in human MT2 cells at 10 uM dosed simultaneously with virus infection measured 48 hrs post-infection by recombinant virus assay
- Assay type: functional
- Conditions used: Human immunodeficiency virus 1, pNL4.3-Ren, MT2, 48 h; values are per cent of control
# Lookup of reported residual activity at 10 µM keyed by entry
Only the number, expressed in %, is required.

{"Molecule smiles": "CC1(C)C(=O)CC[C@]2(C)[C@H]3CC[C@@H]4C5=C[C@](C)(CO)CC[C@]5(C)CC[C@@]4(C)[C@]3(C)C[C@@H](O)[C@@H]12", "System tested": "Human immunodeficiency virus 1", "Measure name": "residual activity at 10 µM", "Reported measurement": 16}
{"Molecule smiles": "CC1(C)C=C2[C@H]3CC[C@@H]4[C@@]5(C)CC[C@H](O)C(C)(C)[C@@H]5[C@H](O)C[C@@]4(C)[C@]3(C)CC[C@@]2(C)CC1", "System tested": "Human immunodeficiency virus 1", "Measure name": "residual activity at 10 µM", "Reported measurement": 1}

Alright, here's another molecule for you.
Q: What measured residual activity at 10 µM goes with CC1(C)C=C2[C@H]3C[C@@H](O)[C@@H]4[C@@]5(C)CC[C@H](O)C(C)(C)[C@@H]5CC[C@@]4(C)[C@]3(C)CC[C@@]2(CO)CC1 ?
Result: 78
